For each entry below, report its IC50 value.
System: DU-145
Experiment: Antiproliferative activity against human DU-145 cells assessed as reduction in cell viability incubated for 48 hrs by CCk-8 assay
Format: functional, cell-based
Conditions: DU-145, 48 h

Request: If you can, please state the reported IC50 value of `C[C@H]1CCC/C=C/[C@@H]2C[C@H](OC(=O)CCCC(=O)OCCOc3ccc(-c4cc(=S)ss4)cc3)C[C@H]2[C@H](OC(=O)CCCC(=O)OCCOc2ccc(-c3cc(=S)ss3)cc2)/C=C/C(=O)O1` .
Result: > 40 µM

Request: // same read-out, input: `C[C@H]1CCC/C=C/[C@@H]2C[C@H](OC(=O)CCC(=O)OCCOc3ccc(-c4cc(=S)ss4)cc3)C[C@H]2[C@H](OC(=O)CCC(=O)OCCOc2ccc(-c3cc(=S)ss3)cc2)/C=C/C(=O)O1`
Result: > 40 µM

Request: // same read-out, input: `C[C@H]1CCC/C=C/[C@@H]2C[C@H](O)C[C@H]2[C@H](OC(=O)CCCC(=O)OCCOc2ccc(-c3cc(=S)ss3)cc2)/C=C/C(=O)O1`
Result: 0.69 µM

###

System: HeLa
Assay: Antiproliferative activity against human HeLa cells assessed as reduction in cell viability incubated for 48 hrs by CCk-8 assay
Assay type: functional, cell-based
pIC50: −log10 of the molar value.
For each entry below, report its pIC50 value.

Request: If you can, please state the reported pIC50 value of `C[C@H]1CCC/C=C/[C@@H]2C[C@H](O)C[C@H]2[C@H](OC(=O)c2ccccc2C(=O)OCCOc2ccc(-c3cc(=S)ss3)cc2)/C=C/C(=O)O1` .
Result: < 4.40

Request: // same read-out, input: `C[C@H]1CCC/C=C/[C@@H]2C[C@H](OC(=O)CCCC(=O)OCCOc3ccc(-c4cc(=S)ss4)cc3)C[C@H]2[C@H](OC(=O)CCCC(=O)OCCOc2ccc(-c3cc(=S)ss3)cc2)/C=C/C(=O)O1`
Result: < 4.40

Request: // same read-out, input: `C[C@H]1CCC/C=C/[C@@H]2C[C@H](O)C[C@H]2[C@H](OC(=O)CCCC(=O)OCCOc2ccc(-c3cc(=S)ss3)cc2)/C=C/C(=O)O1`
Result: 6.07

###

Test: Antiproliferative activity against human L02 cells assessed as reduction in cell viability incubated for 48 hrs by CCk-8 assay
Format: toxicity, cell-based
For each entry below, report its IC50 at 48 h value.

Request: If you can, please state the reported IC50 at 48 h value of `C[C@H]1CCC/C=C/[C@@H]2C[C@H](O)C[C@H]2[C@H](OC(=O)CCC(=O)Oc2ccc(-c3cc(=S)ss3)cc2)/C=C/C(=O)O1` .
Result: 8.18 µM

Request: // same read-out, input: `C[C@H]1CCC/C=C/[C@@H]2C[C@H](O)C[C@H]2[C@H](OC(=O)c2ccccc2C(=O)OCCCCOc2ccc(-c3cc(=S)ss3)cc2)/C=C/C(=O)O1`
Result: > 80 µM

Request: // same read-out, input: `C[C@H]1CCC/C=C/[C@@H]2C[C@H](OC(=O)CCCC(=O)OCCOc3ccc(-c4cc(=S)ss4)cc3)C[C@H]2[C@H](OC(=O)CCCC(=O)OCCOc2ccc(-c3cc(=S)ss3)cc2)/C=C/C(=O)O1`
Result: > 40 µM

Request: // same read-out, input: `Oc1ccc(-c2cc(=S)ss2)cc1`
Result: 16.8 µM

Request: // same read-out, input: `C[C@H]1CCC/C=C/[C@@H]2C[C@H](OC(=O)CCC(=O)OCCCCOc3ccc(-c4cc(=S)ss4)cc3)C[C@H]2[C@H](O)/C=C/C(=O)O1`
Result: > 80 µM

Request: // same read-out, input: `C[C@H]1CCC/C=C/[C@@H]2C[C@H](OC(=O)c3ccccc3C(=O)OCCOc3ccc(-c4cc(=S)ss4)cc3)C[C@H]2[C@H](OC(=O)c2ccccc2C(=O)OCCOc2ccc(-c3cc(=S)ss3)cc2)/C=C/C(=O)O1`
Result: > 40 µM

Values were extracted from ChEMBL document CHEMBL5325456.
